# Read-out: UDP glucuronosyltransferase (UGT1A1), UGT1A1 (gene 54658)
# protocol-details: LTEA_HepaRG_UGT1A1: Life Technologies and Expression Analysis (LTEA) Assay for UDP glucuronosyltransferase (UGT1A1) using HepaRG (AID 2283538)
# stated-conditions: mRNA level, 48 h; actives raise or lower the signal
Activity calls are given as the source filed them. Rule for the calls: active = hit-call score of the fitted dose curve at least 0.9, where 1 is the maximum; inactive = score below 0.9.
Result category, one only: Y = active, N = inactive

# count of solved cases: 2
compound=O=C(CCCN1CCC(O)(c2ccc(Cl)cc2)CC1)c1ccc(F)cc1 assigned_label=Y
compound=N=C(N)c1ccc(OCCCCCOc2ccc(C(=N)N)cc2)cc1 assigned_label=Y

input: Which outcome was assigned to CCCCC(CC)C(=O)O (stereo not drawn) in this test?
output: N

input: Which outcome was assigned to CCC(C)c1ccccc1O (stereo not drawn) in this test?
output: N

input: Which outcome was assigned to "CCCCCCCCCCCCOS(=O)(=O)O" in this test?
output: Y

input: Which outcome was assigned to "OCC(CO)(CBr)CBr" in this test?
output: N

input: Which outcome was assigned to "CN(C)CCOC(c1ccccc1)c1ccccc1" in this test?
output: N

input: Which outcome was assigned to "CCCCCCCCCCCCCCC" in this test?
output: Y

====

Reported AC50 values are given for each entry in this list.
# System: TTR (gene 7276)
# protocol-details: CCTE_GLTED_hTTR_0.5uM: CCTE's human Transthyretin (hTTR) Inhibition Assay, with 0.5uM TTR, Great Lakes Toxicology and Ecology Division (GLTED) Lab (AID 2284320)
Activity calls are given as the source filed them. The calls were made as follows: active = hit-call score of the fitted dose curve at least 0.9, where 1 is the maximum; inactive = score below 0.9.

Some molecules with known AC50 results, for comparison:
compound_smiles=O=C(O)CCC(F)(F)C(F)(F)C(F)(F)C(F)(F)C(F)(F)C(F)(F)F endpoint_value="3660 nM (active)"
compound_smiles=O=P(O)(O)CCC(F)(F)C(F)(F)C(F)(F)C(F)(F)C(F)(F)C(F)(F)C(F)(F)C(F)(F)F endpoint_value="2240 nM (active)"
compound_smiles=O=C(CC(=O)C(F)(F)C(F)(F)C(F)(F)F)c1cccs1 endpoint_value="193 nM (active)"

input: Lab request: please report AC50 under test system TTR (gene 7276) for "O=C(O)C(F)(F)OC(F)(F)C(F)(F)OC(F)(F)C(F)(F)OC(F)(F)C(F)(F)C(F)(F)C(F)(F)F"
output: 1110 nM (active)

input: Lab request: please report AC50 under test system TTR (gene 7276) for "O=P(O)(O)CCC(F)(F)C(F)(F)C(F)(F)C(F)(F)C(F)(F)C(F)(F)F"
output: 6470 nM (active)

input: Lab request: please report AC50 under test system TTR (gene 7276) for "O=C(O)CCC(F)(F)C(F)(F)C(F)(F)C(F)(F)C(F)(F)F"
output: 3120 nM (active)

====

# experimental-system: CCAAT/enhancer-binding protein beta (Homo sapiens)
# protocol-details: ATG_C_EBP_CIS: Attagene CIS-FACTORIAL HepG2 Assay for human CCAAT/Enhancer Binding Protein (C/EBP) beta (AID 2282927)
# stated-conditions: HepG2 Attagene cis-factorial transcription factor reporter; actives raise or lower the signal
Calls of active or inactive are those of the source. The calls were made as follows: active = hit-call score of the fitted dose curve at least 0.9, where 1 is the maximum; inactive = score below 0.9.
Result category, one only: 1.0 for active, 0.0 for inactive

# count of solved cases: 5
compound="c1ccc(CNc2ncnc3c2ncn3C2CCCCO2)cc1 (stereo not drawn)" assigned_label=0.0
compound=CN(Cc1cnc2nc(N)nc(N)c2n1)c1ccc(C(=O)N[C@@H](CCC(=O)O)C(=O)O)cc1 assigned_label=0.0
compound=CCCCCCCCCCCC assigned_label=0.0
compound="CCCCCCCCC1CCC(=O)O1 (stereo not drawn)" assigned_label=0.0
compound=CCC(=O)C=Cc1ccc(OC)cc1 assigned_label=0.0

input: Which outcome was assigned to "CN(CCO)S(=O)(=O)C(F)(F)C(F)(F)C(F)(F)C(F)(F)C(F)(F)C(F)(F)C(F)(F)C(F)(F)F" in this test?
output: 0.0

input: Which outcome was assigned to "CCOC(=O)c1nc(C(Cl)(Cl)Cl)n(-c2ccc(Cl)cc2Cl)n1" in this test?
output: 0.0
